Assay: Cytotoxicity in uninfected treated cultures (CC50)
Type: cell-based
Conditions: human, uninfected MRC-5 human embryo lung cells; Table 7; concentration yielding 50% cytotoxicity, uninfected MRC-5 cells
propertyLabel: CC50

CSc1nc2ccc(OCCC3CCN(c4ccc(C)nn4)CC3)cc2o1 ... > 1 µg/mL
